Target: α-synuclein (UniProt P37840 1-140); also: test concentration or dose not given here
Experiment: cell-based or functional assay
Non-standard residues stand in square brackets, D forms with d.
assay.metric: % decrease in rate of aggregation (%)
Give bare numbers, in %.

Solved entries:
Ac-[dQ][dY][dK][dV][dL][dI]-NH2 (SMILES CC[C@@H](C)[C@@H](NC(=O)[C@@H](CC(C)C)NC(=O)[C@H](NC(=O)[C@@H](CCCCN)NC(=O)[C@@H](Cc1ccc(O)cc1)NC(=O)[C@@H](CCC(N)=O)NC(C)=O)C(C)C)C(N)=O) [ZP-0202]	54.5
Ac-[dQ][dP][dS][dV][dL][dI]-NH2 (SMILES CC[C@@H](C)[C@@H](NC(=O)[C@@H](CC(C)C)NC(=O)[C@H](NC(=O)[C@@H](CO)NC(=O)[C@H]1CCCN1C(=O)[C@@H](CCC(N)=O)NC(C)=O)C(C)C)C(N)=O) [ZP-0207]	3.6
Ac-[dH][dH][dV][dI][dV][dT]-NH2 (SMILES CC[C@@H](C)[C@@H](NC(=O)[C@H](NC(=O)[C@@H](Cc1c[nH]cn1)NC(=O)[C@@H](Cc1c[nH]cn1)NC(C)=O)C(C)C)C(=O)N[C@@H](C(=O)N[C@@H](C(N)=O)[C@H](C)O)C(C)C) [ZP-0170]	29.3

I'm hoping you can list % decrease in rate of aggregation for every binder here, please.
1. Ac-[dH][dH][dV][dI][dV][dP]-NH2 (SMILES CC[C@@H](C)[C@@H](NC(=O)[C@H](NC(=O)[C@@H](Cc1c[nH]cn1)NC(=O)[C@@H](Cc1c[nH]cn1)NC(C)=O)C(C)C)C(=O)N[C@@H](C(=O)N1CCC[C@@H]1C(N)=O)C(C)C) [ZP-0168]
2. Ac-[dD][dR][dY][dS][dV][dL][dI]-NH2 (SMILES CC[C@@H](C)[C@@H](NC(=O)[C@@H](CC(C)C)NC(=O)[C@H](NC(=O)[C@@H](CO)NC(=O)[C@@H](Cc1ccc(O)cc1)NC(=O)[C@@H](CCCNC(=N)N)NC(=O)[C@@H](CC(=O)O)NC(C)=O)C(C)C)C(N)=O) [ZP-0214]
3. Ac-[dH][dH][dT][dI][dV][dK]-NH2 (SMILES CC[C@@H](C)[C@@H](NC(=O)[C@H](NC(=O)[C@@H](Cc1c[nH]cn1)NC(=O)[C@@H](Cc1c[nH]cn1)NC(C)=O)[C@H](C)O)C(=O)N[C@@H](C(=O)N[C@H](CCCCN)C(N)=O)C(C)C) [ZP-0179]
4. Ac-[dH][dH][dV][dI][dV][dV]-NH2 (SMILES CC[C@@H](C)[C@@H](NC(=O)[C@H](NC(=O)[C@@H](Cc1c[nH]cn1)NC(=O)[C@@H](Cc1c[nH]cn1)NC(C)=O)C(C)C)C(=O)N[C@@H](C(=O)N[C@@H](C(N)=O)C(C)C)C(C)C) [ZP-0169]
5. Ac-[dH][dH][dV][dI][dV][dW]-NH2 (SMILES CC[C@@H](C)[C@@H](NC(=O)[C@H](NC(=O)[C@@H](Cc1c[nH]cn1)NC(=O)[C@@H](Cc1c[nH]cn1)NC(C)=O)C(C)C)C(=O)N[C@@H](C(=O)N[C@H](Cc1c[nH]c2ccccc12)C(N)=O)C(C)C) [ZP-0172]

Completion:
1: -5.4; 2: 4.8; 3: -0.6; 4: -13.3; 5: 6.9
